- procedureSummary: Cytotoxicity evaluation in GS4.1 cells (Cell Titer 96 AQueous One Solution Cell Proliferation Assay)
- Format: cell-based
- measurementSetup: human, cellular viability, treated as in replicon assay, read-out: HCV Replicon CC50
observationType: CC50 at 72 h

Any idea what its CC50 at 72 h is? The compound is CC(C)NP(=O)(OCCSC(=O)C(C)(C)CO)OC[C@H]1O[C@@H](n2cnc3c(NC4CC4)nc(N)nc32)C(C)(O)C1O (stereo partly drawn) [Compound 75]
> 75 µM

Any idea what its CC50 at 72 h is? The compound is CCCCOC(=O)[C@H](CC(C)C)NP(=O)(N[C@@H](CC(C)C)C(=O)OCCCC)OC[C@H]1O[C@@H](n2cnc3c(OC)nc(N)nc32)[C@@](C)(O)C1O (stereo partly drawn) [Compound 44]
≤ 75 µM

Any idea what its CC50 at 72 h is? The compound is C#CC1(F)C(O)[C@@H](COP(=O)(NC(CC(C)C)C(=O)OC)NC(CC(C)C)C(=O)OC)O[C@H]1n1cnc2c(=O)[nH]c(N)nc21 (stereo partly drawn) [Compound 23]
> 75 µM

Any idea what its CC50 at 72 h is? The compound is CCOC(=O)[C@H](C)NP(=O)(N[C@@H](C)C(=O)OCC)OC[C@H]1O[C@@H](n2cnc3c(NC4CC4)nc(N)nc32)[C@@](C)(O)C1O (stereo partly drawn) [Compound 31]
> 75 µM

Any idea what its CC50 at 72 h is? The compound is CCOC(=O)CCNP(=O)(OCCSC(=O)C(C)(C)CO)OC[C@H]1O[C@@H](n2cnc3c(NC4CC4)nc(N)nc32)C(C)(O)C1O (stereo partly drawn) [Compound 76]
> 75 µM

Any idea what its CC50 at 72 h is? The compound is CCOC(=O)[C@@H](NP(=O)(N[C@H](C(=O)OCC)c1ccccc1)OC[C@H]1O[C@@H](n2cnc3c(NC4CC4)nc(N)nc32)C(C)(O)C1O)c1ccccc1 (stereo partly drawn) [Compound 30]
> 75 µM
